system: Glycogen synthase kinase-3 beta (Homo sapiens)
test-details: Inhibition of human Glycogen synthase kinase-3 beta at 30 uM
endpoint: inhibition (%)

* CSc1ccc(-c2nc3c(Sc4ccc(F)cc4)ncnc3n2C)cc1 | 5
* Cn1c(-c2ccc([S+](C)[O-])cc2)nc2c(Sc3ccccc3)ncnc21 (stereo not drawn) | 4
* Fc1ccc(Sc2ncnc3c2ncn3Cc2ccccc2)cc1 | 0
* Fc1ccc(Cn2cnc3c(Sc4ccccc4)ncnc32)cc1 | 0

(P) Fc1ccc(Cn2cnc3c(Sc4ccc(F)cc4)ncnc32)cc1
(Q) Nc1[nH]cnc2ncnc1-2
(R) Cn1cnc2c(SCc3ccc(F)cc3)ncnc21
(S) Fc1ccc(Sc2[nH]cnc3nccc2-3)cc1
(T) Cn1c(-c2ccccc2)nc2c(Sc3ccc(F)cc3)ncnc21
Challenge: Put the entries in order of inhibition, starting with the largest number. Would you mind listing the labels in the order asked for?
Response given: T, R, P, S, Q
(T: 22%, R: 14%, P: 8%, S: 4%, Q: 0%)

(A) c1ccc(Sc2ncnc3[nH]cnc23)cc1
(B) Fc1ccc(Cn2cnc3ncnc(Cl)c32)cc1
Challenge: Quick check, higher inhibition between A and B ? Write the label of whichever entry you select.
Response given: A
(A: 1%, B: 0%)
